- Test system: Rattus norvegicus
- test-summary: Antivasopressor effective dose is defined as the dose that reduces the response seen with 2 units of agonist to equal the response seen with 1 unit of agonist administered before antagonist.
- Type: functional
*1 amine or outer side, *2 acyl side, *3 side chain or, on linkers, in order; H or OH if unused. Where a SMILES comes first, the peptide text is derived from it. Bridges are numbered along the chain shown (N, C = ends). [ ]: non-standard residue; d: D form. The star is where a group is joined. X1 = O=C(CC1(S[*:2])CCCCC1)[*:1]; iPr = CC(C)*
Use 0.5 nM/kg as the dividing line for Effective dose, with the line itself on the met side and lower values as not met.

CC(C)[C@@H]1NC(=O)[C@H](Cc2ccccc2)NC(=O)[C@@H](Cc2ccc(O)cc2)NC(=O)CC2(CCCCC2)SSC[C@@H](C(=O)N2CCC[C@H]2C(=O)N[C@@H](CCCN=C(N)N)C(=O)NCC(N)=O)NC(=O)[C@H](CC(N)=O)NC1=O :: not met
CC(C)[C@@H]1NC(=O)[C@H](Cc2ccccc2)NC(=O)[C@H](Cc2ccc(O)cc2)NC(=O)CC2(CCCCC2)SSC[C@@H](C(=O)N2CCC[C@H]2C(=O)N[C@@H](CCCN=C(N)N)C(=O)NCC(N)=O)NC(=O)[C@H](CC(N)=O)NC1=O (stereo in doubt; 9) :: met
COc1ccc(C[C@@H]2NC(=O)CC3(CCCCC3)SSC[C@@H](C(=O)N3CCC[C@H]3C(=O)N[C@@H](CCCN=C(N)N)C(=O)NCC(N)=O)NC(=O)[C@H](CC(N)=O)NC(=O)[C@H](C(C)C)NC(=O)[C@H](Cc3ccccc3)NC2=O)cc1 (Y(Me)FVNCPRG-NH2; linker N-5 via X1) :: not met
CCOc1ccc(C[C@@H]2NC(=O)CC3(CCCCC3)SSC[C@@H](C(=O)N3CCC[C@H]3C(=O)N[C@@H](CCCN=C(N)N)C(=O)NCC(N)=O)NC(=O)[C@H](CC(N)=O)NC(=O)[C@H](C(C)C)NC(=O)[C@H](Cc3ccccc3)NC2=O)cc1 (Y(Et)FVNCPRG-NH2; linker N-5 via X1) :: not met
CC(C)Oc1ccc(C[C@@H]2NC(=O)CC3(CCCCC3)SSC[C@@H](C(=O)N3CCC[C@H]3C(=O)N[C@H](CCCN=C(N)N)C(=O)NCC(N)=O)NC(=O)[C@H](CC(N)=O)NC(=O)[C@H](C(C)C)NC(=O)[C@H](Cc3ccccc3)NC2=O)cc1 (Y(iPr)FVNCP[dR]G-NH2; linker N-5 via X1) :: not met
CC(C)[C@@H]1NC(=O)[C@H](Cc2ccccc2)NC(=O)[C@H](Cc2ccc(O)cc2)NC(=O)CC2(CCCCC2)SSC[C@@H](C(=O)N2CCC[C@H]2C(=O)N[C@H](CCCN=C(N)N)C(=O)NCC(N)=O)NC(=O)[C@H](CC(N)=O)NC1=O :: met
CCOc1ccc(C[C@@H]2NC(=O)CC3(CCCCC3)SSC[C@@H](C(=O)N3CCC[C@H]3C(=O)N[C@H](CCCN=C(N)N)C(=O)NCC(N)=O)NC(=O)[C@H](CC(N)=O)NC(=O)[C@H](C(C)C)NC(=O)[C@H](Cc3ccccc3)NC2=O)cc1 (Y(Et)FVNCP[dR]G-NH2; linker N-5 via X1) :: met
CC(C)Oc1ccc(C[C@@H]2NC(=O)CC3(CCCCC3)SSC[C@@H](C(=O)N3CCC[C@H]3C(=O)N[C@@H](CCCN=C(N)N)C(=O)NCC(N)=O)NC(=O)[C@H](CC(N)=O)NC(=O)[C@H](C(C)C)NC(=O)[C@H](Cc3ccccc3)NC2=O)cc1 (Y(iPr)FVNCPRG-NH2; linker N-5 via X1) :: not met

Now take the following compound into account.
Task: Does CC(C)[C@@H]1NC(=O)[C@H](Cc2ccccc2)NC(=O)[C@H](Cc2ccc(O)cc2)NC(=O)CC2(CCCCC2)SSC[C@@H](C(=O)N2CCC[C@H]2C(=O)N[C@@H](CCCN=C(N)N)C(=O)NCC(N)=O)NC(=O)[C@H](CC(N)=O)NC1=O (stereo in doubt) have a reported Effective dose of at least 0.5 nM/kg?
Result: met

The reported numbers originate from ChEMBL document CHEMBL1121930.
